- Test system: Human glioma cells GL07
- EXPERIMENT_NOTES: Antitumor effect on human glioma cells (GL07) transplanted into nude mice
- Type: in vivo
- STUDY_CONDITIONS: Mus musculus, Glioma cell, 216 h, GL07, oral, 20 mg/kg once a day for 9 days, read-out: TGIR, % (tumor growth inhibition rate)

MOLECULE: CCCCCNC(=O)Nc1ccc(Oc2ncnc3cc(OC)c(OC)cc23)cc1Cl [Example 78]
inhibition in vivo at 20 mg/kg: 21%

MOLECULE: COc1cc(Oc2ncnc3cc(OCCCN4CCOCC4)c(OC)cc23)ccc1NC(=O)Nc1ccc(F)cc1F [Example 172]
inhibition in vivo at 20 mg/kg: 42%

MOLECULE: CCN(CC)C(=O)Nc1ccc(Oc2ncnc3cc(OC)c(OC)cc23)cc1Cl [Example 116]
inhibition in vivo at 20 mg/kg: 83%

MOLECULE: COc1cc2ncnc(Oc3ccc(NC(=O)Nc4ccc(F)cc4F)cc3C)c2cc1OC [Example 99]
inhibition in vivo at 20 mg/kg: 33%

MOLECULE: COc1cc2c(Oc3ccc(NC(=O)Nc4ccc(F)cc4F)c(Cl)c3)ncnc2cc1OCCCN1CCOCC1 [Example 163]
inhibition in vivo at 20 mg/kg: 52%

MOLECULE: C=CCNC(=O)Nc1ccc(Oc2ccnc3cc(OC)c(OC)cc23)cc1F [Example 4]
inhibition in vivo at 20 mg/kg: 61%

MOLECULE: CCNC(=O)Nc1cc(C)c(Oc2ccnc3cc(OCCN4CCOCC4)c(OC)cc23)cc1C [Example 175]
inhibition in vivo at 20 mg/kg: 17%

MOLECULE: CCCNC(=O)Nc1ccc(Oc2ncnc3cc(OC)c(OCc4ccccn4)cc23)cc1Cl [Example 138]
inhibition in vivo at 20 mg/kg: 21%

MOLECULE: CCCCN(C)C(=O)Nc1ccc(Oc2ncnc3cc(OC)c(OC)cc23)cc1Cl [Example 114]
inhibition in vivo at 20 mg/kg: 60%

MOLECULE: COc1ccccc1NC(=O)Nc1ccc(Oc2ccnc3cc(OC)c(OC)cc23)cc1Cl [Example 18]
inhibition in vivo at 20 mg/kg: 57%

MOLECULE: CCCNC(=O)Nc1ccc(Oc2ncnc3cc(OC)c(OCCCN4CCN(C)CC4)cc23)cc1Cl [Example 137]
inhibition in vivo at 20 mg/kg: 20%

MOLECULE: CCCNC(=O)Nc1ccc(Oc2ncnc3cc(OC)c(OCCCN(C)CCO)cc23)cc1Cl [Example 140]
inhibition in vivo at 20 mg/kg: 21%

MOLECULE: COc1cc2ncnc(Oc3ccc(NC(=O)Nc4ccc(F)cc4)c(Cl)c3)c2cc1OC [Example 85]
inhibition in vivo at 20 mg/kg: 26%

MOLECULE: CCCCNC(=O)Nc1ccc(Oc2ncnc3cc(OC)c(OC)cc23)c(C)c1 [Example 98]
inhibition in vivo at 20 mg/kg: 38%

MOLECULE: CCCNC(=O)Nc1ccc(Oc2ncnc3cc(OCCN4CCN(C)CC4)c(OC)cc23)cc1Cl [Example 128]
inhibition in vivo at 20 mg/kg: 21%

MOLECULE: CCCCCNC(=O)Nc1ccc(Oc2ncnc3cc(OC)c(OC)cc23)cc1 [Example 66]
inhibition in vivo at 20 mg/kg: 26%

MOLECULE: COc1cc2c(Oc3ccc(NC(=O)N(C)C)c(Cl)c3)ncnc2cc1OCCCCN1CCOCC1 [Example 179]
inhibition in vivo at 20 mg/kg: 33%
